Where do these numbers come from? They come from the supplement of paper PMC10567573.

B1: MYOZ1 (parent)
chain: FSDSSMDHFQKFLPTVGGQLGTAG

Variants of: B1
Assay: protein stability index of a GFP-peptide fusion (GPS, HEK-293T) (PSI 1-6); higher = more stable;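 further: lentivirally expressed fusions sorted by FACS into six bins by GFP to DsRed ratio, PSI derived from sequencing read proportions per bin multiplied by bin number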
Conditions: c terminus: a fixed tail appended
If the reported protein stability index equals or exceeds 2, assign met. If not, assign not met.

Given the entry FSDSSMDHFQKFLPTVGGQLGDAG , answer whether its protein stability index meets or surpasses 2. met

Given the entry FSDSSMHHFQKFLPTVGGQLGTAG , answer whether its protein stability index meets or surpasses 2. not met

Given the entry FSDSSMDHFQKFLPTTGGQLGTAG , answer whether its protein stability index meets or surpasses 2. met

Given the entry FSDSSMDHFQKFLGTVGGQLGTAG , answer whether its protein stability index meets or surpasses 2. not met
